- SYSTEM_TESTED: ROCK2 (Homo sapiens, UniProt O75116)
- Sequence (O75116 11-552): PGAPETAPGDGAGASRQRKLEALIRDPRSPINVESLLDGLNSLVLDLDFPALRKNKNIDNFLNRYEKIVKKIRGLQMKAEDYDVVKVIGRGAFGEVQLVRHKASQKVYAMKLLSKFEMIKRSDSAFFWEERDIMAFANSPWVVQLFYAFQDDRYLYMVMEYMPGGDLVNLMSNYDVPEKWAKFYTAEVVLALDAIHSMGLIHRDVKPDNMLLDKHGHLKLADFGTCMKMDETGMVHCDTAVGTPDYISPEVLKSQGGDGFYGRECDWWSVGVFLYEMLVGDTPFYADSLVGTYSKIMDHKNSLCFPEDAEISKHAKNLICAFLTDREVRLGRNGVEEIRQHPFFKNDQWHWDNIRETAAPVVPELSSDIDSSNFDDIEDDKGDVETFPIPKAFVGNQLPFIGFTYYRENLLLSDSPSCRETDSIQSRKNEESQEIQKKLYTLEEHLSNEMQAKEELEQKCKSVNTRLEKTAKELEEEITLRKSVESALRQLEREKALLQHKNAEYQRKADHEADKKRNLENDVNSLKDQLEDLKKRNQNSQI
pIC50: −log10 of the molar value.
READOUT_NAME: pIC50

| COMPOUND | pIC50 |
| --- | --- |
| CCn1nc(-c2cc(C)c(-c3ccc(C4CC4)cn3)cc2C)nc1Nc1ccc2c(c1)C(C)NC2=O (stereo not drawn) | > 6.52 |

Under ROCK2 (Homo sapiens, UniProt O75116): pIC50 value of CCn1nc(-c2ccc(C3CCNCC3)cc2)nc1Nc1ccc2c(c1)CNC2=O ?
5.00 to 5.52

Under ROCK2 (Homo sapiens, UniProt O75116): pIC50 value of Cn1nc(-c2ccc(-n3cnc(C4CC4)c3)cc2)nc1Nc1ccc2c(c1)CNC2=O ?
> 6.52

Taken from patent US20250122173A1.
